Where do these numbers come from? They come from paper PMC11550483.

- system tested: SARS2 M^pro (Severe acute respiratory syndrome coronavirus 2, UniProt P0DTD1, P3395H)
- Type: biochemical, SARS-CoV-2
Given measured % inhibition (20 µM) biochemical, output class 1 if it is greater than or equal to 9% and class 0 if not.

Record excerpt, results attached:
INSERT INTO measurements (molecule, class_name) VALUES
  ('Cc1cc(S(=O)(=O)NC(C)C)ccc1OCC(=O)Nc1cccc([N+](=O)[O-])c1', 'class 0'),
  ('CCN1C(=O)C(=O)c2cc(Cl)ccc21', 'class 1'),
  ('O=C1/C(=C/c2ccc(F)cc2)SC(=S)N1Cc1cccnc1', 'class 0'),
  ('COc1cc(C#N)ccc1OCc1ccc(Cl)cc1', 'class 0'),
  ('CC(C)(C)NC(=O)N[C@H](C(=O)N1C[C@H]2[C@@H]([C@H]1C(=O)NC(CC1CCC1)C(=O)C(N)=O)C2(C)C)C(C)(C)C (some centres unmarked) [Boceprevir, reference compound]', 'class 1');

Query: In plain terms: is recorded % inhibition (20 µM) biochemical at least 9% for Cc1ccc(/C=C/C(=O)Nc2ccccc2Br)o1 ?
Result: class 1

Query: Also need CCOc1ccccc1OCC(=O)N/N=C/c1cc(C)ccc1O , thanks.
Result: class 1

Query: Also need COC(=O)c1ccc(C(=O)Nc2ccccc2N)cc1 , thanks.
Result: class 0

Query: Also need O=S(=O)(O)CCCN1/C(=C/C=C2\CCC(/C=C/c3sc4ccccc4[n+]3CCCS(=O)(=O)O)=C2N(c2ccccc2)c2ccccc2)Sc2ccccc21 , thanks.
Result: class 0

Query: Also need Cc1cccc2c1NC(=O)/C2=C\C(=O)c1cccs1 , thanks.
Result: class 1

Query: Also need CC(=O)Nc1cccc(-c2nc3cc(Cl)ccc3o2)c1 , thanks.
Result: class 1

Query: Also need O=C(COc1ccccc1)Nc1scc(-c2ccccc2)c1C(=O)NCc1ccco1 , thanks.
Result: class 0

Query: Also need COc1cccc(NC(=O)Cn2c(=O)n(C)c(=O)n(-c3ccc(Oc4ccc(SC(F)(F)F)cc4)c(C)c3)c2=O)c1 , thanks.
Result: class 0

Query: Also need CCOc1ccccc1C1Nc2ccccc2NC2=C1C(=O)CC(c1ccccc1)C2 (centres unmarked) , thanks.
Result: class 0

Query: Also need O=Cc1cc(Cl)ccc1OCC(=O)Nc1ccc(F)cc1 , thanks.
Result: class 0

Query: Also need CN1C(=O)C(O)(CC(=O)c2ccco2)c2cc(Cl)ccc21 (centres unmarked) , thanks.
Result: class 0

* * *

- system tested: SARS2 M^pro (Severe acute respiratory syndrome coronavirus 2, UniProt P0DTD1, P3395H)
- Assay type: biochemical, SARS-CoV-2
experimental endpoint: % inhibition (20 µM) biochemical (%)
Reply numerically in %, unit not repeated.

Some solved cases for reference:
INSERT INTO assay_data (compound, experimental_endpoint, endpoint_result) VALUES
  ('CSc1cccc(NC(=O)c2cnn3ccccc23)c1 [MWAC-0001883, CSc1cccc(NC(=O)c2cnn3ccccc23)c1]', '% inhibition (20 µM) biochemical', 0),
  ('Nc1c(C(=O)c2ccccc2)sc2nc(C3CC3)cc(-c3ccco3)c12 [MWAC-0001875]', '% inhibition (20 µM) biochemical', 0),
  ('O=Cc1ccccc1OCc1ccc2c(c1)OCO2 [MWAC-0001842, O=Cc1ccccc1OCc2ccc3OCOc3c2]', '% inhibition (20 µM) biochemical', 11);

Query: So what does the record say about % inhibition (20 µM) biochemical for COc1ccc(C2=NN3C(C2)c2ccccc2OC3c2ccc(C(C)(C)C)cc2)cc1 (stereo not shown) [MWAC-0001719] ?
Result: 5

* * *

- system tested: SARS2 M^pro (Severe acute respiratory syndrome coronavirus 2, UniProt P0DTD1, P3395H)
- Assay type: biochemical, SARS-CoV-2
experimental endpoint: % inhibition (20 µM) biochemical
Mention the unit after the number when you answer.

Some solved cases for reference:
INSERT INTO results (compound, endpoint_result) VALUES
  ('O=C1/C(=C/c2cccnc2)SC(=S)N1Cc1cccnc1 [MWAC-0001816, O=C1N(Cc2cccnc2)C(=S)S/C/1=C\c3cccnc3]', '43%'),
  ('O=C1NC(=S)NC(=O)C1=Cc1ccccc1OS(=O)(=O)c1ccc2ccccc2c1 [MWAC-0001813]', '4.38%'),
  ('COc1ccc(C(CNC(=O)CCl)N2CCCCC2)cc1 (centres unmarked) [MWAC-0001849, COc1ccc(cc1)C(CNC(=O)CCl)N2CCCCC2]', '33%'),
  ('C#CCN1C(=O)C(O)(CC(=O)c2ccc(Cl)cc2)c2ccccc21 (centres unmarked) [MWAC-0001731]', '5%'),
  ('CC(=O)Nc1ccc(OS(=O)(=O)c2ccc(Cl)c3ccccc23)cc1 [MWAC-0001803]', '1.42%'),
  ('Cc1nn(CC(=O)NCc2ccc3c(c2)OCO3)c(=O)c2c1cnn2C(C)(C)C [MWAC-0000539]', '19%'),
  ('CCC(=O)OCC(=O)NCc1ccc2c(c1)OCO2 [MWAC-0001887, CCC(=O)OCC(=O)NCc1ccc2OCOc2c1]', '0%');

Query: So what does the record say about % inhibition (20 µM) biochemical for CCOC(=O)CS(=O)(=O)c1ccc(C(=O)N2CCN(C(=O)c3ccco3)CC2)cc1[N+](=O)[O-] [MWAC-0001736] ?
Result: 14%

* * *

- system tested: SARS2 M^pro (Severe acute respiratory syndrome coronavirus 2, UniProt P0DTD1, P3395H)
- Format: biochemical, SARS-CoV-2
Property: % inhibition (20 µM) biochemical; scope: individual molecules
Reply numerically in %, unit not repeated.

Some solved cases for reference:
INSERT INTO results (molecule, endpoint_result) VALUES
  ('O=C(CCC(=O)Nc1ccc2c(c1)OCCO2)Nc1ccc(OCc2ccccc2)cc1 [MWAC-0001840]', 3),
  ('Cc1cc(C)c2oc(-c3ccc(C)c(N)c3)nc2c1 [MWAC-0001715, Cc1cc(C)c2oc(nc2c1)c3ccc(C)c(N)c3]', 0),
  ('COc1ccc(OC)c(C(=O)c2oc3ccccc3c2NC(=O)CCl)c1 [MWAC-0001832]', 85);

Note: attention shifts to another entry.
Query: So what does the record say about % inhibition (20 µM) biochemical for O=C1CSC(=S)N1Cc1cccnc1 [MWAC-0001797, O=C1CSC(=S)N1Cc2cccnc2] ?
Result: 7

* * *

Property: % inhibition (20 µM) biochemical; scope: individual molecules
- system tested: SARS2 M^pro (Severe acute respiratory syndrome coronavirus 2, UniProt P0DTD1, P3395H)
- Format: biochemical, SARS-CoV-2
Reply numerically in %, unit not repeated.

Some solved cases for reference:
INSERT INTO results (molecule, system_tested, experimental_endpoint, unit_symbol, endpoint_result) VALUES
  ('CC(NC(=O)CCl)C1COc2ccccc2O1 (stereo not shown)', 'SARS2 M^pro (Severe acute respiratory syndrome coronavirus 2, UniProt P0DTD1, P3395H)', '% inhibition (20 µM) biochemical', '%', 26),
  ('CCc1ccc(C(=O)Cn2c(C)nc([N+](=O)[O-])c2Br)cc1', 'SARS2 M^pro (Severe acute respiratory syndrome coronavirus 2, UniProt P0DTD1, P3395H)', '% inhibition (20 µM) biochemical', '%', 0),
  ('Cc1ccccc1C(=O)Nc1ccc(Br)cc1', 'SARS2 M^pro (Severe acute respiratory syndrome coronavirus 2, UniProt P0DTD1, P3395H)', '% inhibition (20 µM) biochemical', '%', 2.44),
  ('O=C1NC(=O)C(=Cc2cc(Br)ccc2OCc2cccc(F)c2)C(=O)N1', 'SARS2 M^pro (Severe acute respiratory syndrome coronavirus 2, UniProt P0DTD1, P3395H)', '% inhibition (20 µM) biochemical', '%', 4),
  ('COc1cccc(-c2cc(C(=O)N3CCCCC3C)no2)c1 (stereo not shown)', 'SARS2 M^pro (Severe acute respiratory syndrome coronavirus 2, UniProt P0DTD1, P3395H)', '% inhibition (20 µM) biochemical', '%', 2.35),
  ('Cc1ccccc1OCCOc1ccccc1/C=N/n1cnnc1', 'SARS2 M^pro (Severe acute respiratory syndrome coronavirus 2, UniProt P0DTD1, P3395H)', '% inhibition (20 µM) biochemical', '%', 5),
  ('Fc1cccc(/N=c2\oc3ccccc3cc2-c2nc3ccccc3[nH]2)c1', 'SARS2 M^pro (Severe acute respiratory syndrome coronavirus 2, UniProt P0DTD1, P3395H)', '% inhibition (20 µM) biochemical', '%', 0),
  ('Cc1ccccc1-c1noc(-c2ccc(O)cc2)n1', 'SARS2 M^pro (Severe acute respiratory syndrome coronavirus 2, UniProt P0DTD1, P3395H)', '% inhibition (20 µM) biochemical', '%', 9),
  ('Cc1cc(I)cnc1NC(=S)NC(=O)c1ccco1', 'SARS2 M^pro (Severe acute respiratory syndrome coronavirus 2, UniProt P0DTD1, P3395H)', '% inhibition (20 µM) biochemical', '%', 2.41),
  ('Cc1ccc(Cc2cnc(NC(=O)c3cccs3)s2)cc1', 'SARS2 M^pro (Severe acute respiratory syndrome coronavirus 2, UniProt P0DTD1, P3395H)', '% inhibition (20 µM) biochemical', '%', 0);

Query: So what does the record say about % inhibition (20 µM) biochemical for COc1ccccc1N1CCN(C(=O)CCl)CC1 ?
Result: 98

Query: Also need COc1ccc(C(=O)Nc2ccccc2N)cc1 , thanks.
Result: 1

Query: Also need O=C(CCl)NC(NC(=O)CCl)c1ccccc1F , thanks.
Result: 40

Query: Also need CCOc1cc(S(=O)(=O)N2c3ccccc3CC2C)ccc1Cl (stereo not shown) , thanks.
Result: 8

Query: Also need Cc1cc(C(=O)COn2nnc3ccccc32)c(C)n1-c1ccc2c(c1)OCO2 , thanks.
Result: 20

Query: Also need CCc1cccc2c(/C=C3\C(=O)Nc4ccccc43)c[nH]c12 , thanks.
Result: 2.36

Query: Also need CCOc1ccccc1N1CCN(C(=O)c2ccc(Cl)c([N+](=O)[O-])c2)CC1 , thanks.
Result: 0.51

Query: Also need Cc1ccc(Cl)cc1-n1c(SCc2ccccc2Cl)nc2[nH]ncc2c1=O , thanks.
Result: 9

Query: Also need Cc1ccc2c(CC(=O)NCc3ccco3)coc2c1C , thanks.
Result: 11

Query: Also need COc1cccc(C(=O)NN2C(=S)N(c3ccccc3)C(=O)C2CC(N)=O)c1 (stereo not shown) , thanks.
Result: 6

Query: Also need CC(=O)N(/N=C1\Sc2ccccc2C1=O)c1ccccc1C , thanks.
Result: 36

Query: Also need CCc1cc2c3c(c1)C1(C(=O)N3C(C)(C)C=C2C)C(C#N)=C(N)Oc2[nH]c(=O)[nH]c(=O)c21 (stereo not shown) , thanks.
Result: 4

Query: Also need CCOC(=O)c1ccc(NC(=O)CSc2nnc(-c3ccccc3OCC)o2)cc1 , thanks.
Result: 5.5

Query: Also need CCOc1ccc2nc(NC(=O)C3CC3)sc2c1 , thanks.
Result: 8

Query: Also need O=C(CCl)NCCOc1ccccc1 , thanks.
Result: 58

Query: Also need Cc1cc(=O)oc2c(C)c(OCc3ccccc3)ccc12 , thanks.
Result: 7

Query: Also need Fc1nc(F)c(F)c(SC(=S)N2CCOCC2)c1F [MWAC-0001725, Fc1nc(F)c(F)c(SC(=S)N2CCOCC2)c1F] , thanks.
Result: 3.69

Query: Also need COc1ccc(-c2cc(=O)c3ccccc3s2)cc1 , thanks.
Result: 0
